Data credit: patent US20220289753A1

Below, each entry is listed with its recorded pIC50.
# measured-target: SHP-2 enzyme (Met1-Leu525) (Homo sapiens, UniProt Q06124)
# Construct: synthetized by Origene, Met1-Leu525, cat #TP750155
# procedure-details: SHP2 inhibition enzymatic assay (DiFMUP substrate, IRS1 peptide activation)
# setup-conditions: SHP2 wt; activated by 500 nM IRS1 peptide; 75 μM DiFMUP substrate
pIC50: −log10 of the molar value.

Here are 3 compounds together with their reported answers.
query-smiles	data-value
CC1(N)CCN(c2nc3nc(Sc4cccnc4C(F)(F)F)cnc3n2CC2CC2)CC1	5.52 to 6.30
OCCN1CCC(CNc2nc3nc(Sc4cccnc4C(F)(F)F)cnc3[nH]2)CC1	< 5.52
Nc1cnccc1Sc1cnc2[nH]c(N3CCC4(CC3)Cc3ccccc3[C@H]4N)nc2n1	> 6.30

Consider the compound `FC(F)(F)c1ncccc1Sc1cnc2[nH]c(N3CCC4(CCN4)CC3)nc2n1` and give its measured pIC50.
5.52 to 6.30

###

# Test system: ERK phosphorylation in KYSE-520 cells
# procedure-details: Phospho-ERK cellular assay (Advanced phospho-ERK1/2 (Thr202/Tyr204) TR-FRET kit)
# Assay type: cell-based
# setup-conditions: Homo sapiens, KYSE-520, 2 h, KYSE-520 cells, 2 h at 37° C., TR-FRET; read-out: pERK IC50
measured-metric: IC50

compound	IC50
N[C@@H]1c2ccccc2CC12CCN(c1nc3ncc(Sc4cccc5[nH]c(=O)oc45)nc3[nH]1)CC2 [Example 178]	1000 to 5000 nM
Nc1nccc(Sc2cnc3[nH]c(N4CCC5(CC4)Cc4ncccc4[C@H]5N)cc3n2)c1Cl [Example 267]	< 1000 nM
C[C@@H]1OCC2(CCN(c3nc4nc(Sc5cccnc5C(F)(F)F)cnc4[nH]3)CC2)[C@@H]1N [Example 96]	1000 to 5000 nM

Note: attention shifts to another entry.
Which IC50 value belongs to N[C@@H]1c2cccnc2CC12CCN(c1nc3nc(Sc4cccnc4C(F)(F)F)cnc3[nH]1)CC2 [Example 139] ?
< 1000 nM

###

# measured-target: SHP-2 enzyme (Met1-Leu525) (Homo sapiens, UniProt Q06124)
# Construct: synthetized by Origene, Met1-Leu525, cat #TP750155
# Sequence (Q06124 1-525): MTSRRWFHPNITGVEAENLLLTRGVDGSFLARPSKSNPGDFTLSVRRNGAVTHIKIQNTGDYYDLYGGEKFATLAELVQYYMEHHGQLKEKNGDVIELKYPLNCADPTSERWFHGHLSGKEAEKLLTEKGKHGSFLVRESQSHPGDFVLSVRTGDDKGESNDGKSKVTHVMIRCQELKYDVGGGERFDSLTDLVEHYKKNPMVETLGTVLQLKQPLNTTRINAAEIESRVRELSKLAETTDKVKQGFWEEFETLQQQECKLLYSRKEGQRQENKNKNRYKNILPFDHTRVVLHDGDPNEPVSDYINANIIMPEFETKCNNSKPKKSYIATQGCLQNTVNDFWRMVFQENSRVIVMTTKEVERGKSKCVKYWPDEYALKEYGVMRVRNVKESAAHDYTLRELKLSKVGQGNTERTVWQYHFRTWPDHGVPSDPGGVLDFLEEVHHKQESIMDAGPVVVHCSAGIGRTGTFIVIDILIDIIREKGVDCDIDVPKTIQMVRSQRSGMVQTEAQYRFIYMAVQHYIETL
# procedure-details: SHP2 inhibition enzymatic assay (DiFMUP substrate, IRS1 peptide activation)
# setup-conditions: SHP2 wt; activated by 500 nM IRS1 peptide; 75 μM DiFMUP substrate
Measured IC50 by item

Previously resolved entries follow.
compound	data-value
N[C@@H]1CCCC12CCN(c1nc3ncc(Sc4cccc(Cl)c4Cl)nc3[nH]1)CC2 [Example 3]	< 500 nM
Cn1cc2c(n1)CC1(CCN(c3nc4nc(Sc5ccnc(N)c5Cl)cnc4[nH]3)CC1)C2N (stereo not shown) [Example 233]	< 500 nM

Requested field: IC50. Item: CC1(N)CCN(c2nc3nc(Sc4cccnc4C(F)(F)F)cnc3s2)CC1 [Example 119]
500 to 3000 nM

Repeat with NC1CN(c2nc3nc(Sc4cccnc4C(F)(F)F)cnc3[nH]2)C1 [Example 15]
> 3000 nM

// same read-out, input: N[C@@H]1c2cc(F)ccc2CC12CCN(c1nc3ncc(Sc4ccncc4Cl)nc3[nH]1)CC2 [Example 183]
< 500 nM

Entry COc1ccncc1Sc1cnc2[nH]c(N3CCC4(CC3)Cc3ccccc3[C@H]4N)nc2n1 [Example 237] please
< 500 nM

###

pIC50 overview
# Tested on: ERK phosphorylation in KYSE-520 cells
# procedure-details: Phospho-ERK cellular assay (Advanced phospho-ERK1/2 (Thr202/Tyr204) TR-FRET kit)
# Type: cell-based
# setup-conditions: Homo sapiens, KYSE-520, 2 h, KYSE-520 cells, 2 h at 37° C., TR-FRET; read-out: pERK IC50
pIC50: −log10 of the molar value.

molecule	measured-metric	data-value
Nc1nccc(Sc2cnc3[nH]c(N4CCC5(CC4)Cc4ccc(Br)cc4[C@H]5N)nc3n2)c1Cl [Example 219]	pIC50	> 6.00
CCNc1nccc(Sc2cnc3[nH]c(N4CCC5(CC4)Cc4ccccc4[C@H]5N)nc3n2)c1Cl [Example 246]	pIC50	< 5.30
Cc1nc(COc2cnccc2Sc2cnc3[nH]c(N4CCC5(CC4)Cc4ccccc4[C@H]5N)nc3n2)co1 [Example 227]	pIC50	< 5.30

Would you kindly look at the next entry?
Which measured pIC50 value corresponds to CC1(N)CCN(c2nc3nc(Sc4cccc5nccnc45)cnc3[nH]2)CC1 [Example 71] ?
5.30 to 6.00

###

# measured-target: SHP-2 enzyme (Met1-Leu525) (Homo sapiens, UniProt Q06124)
# Construct: synthetized by Origene, Met1-Leu525, cat #TP750155
# procedure-details: SHP2 inhibition enzymatic assay (DiFMUP substrate, IRS1 peptide activation)
# setup-conditions: SHP2 wt; activated by 500 nM IRS1 peptide; 75 μM DiFMUP substrate
pIC50: −log10 of the molar value.
Examples of molecules with documented pIC50 follow.

Recorded results for 10 molecules are shown here.
molecule	measured-target	pIC50
CC1(N)CCN(c2nc3nc(Sc4cccc5c4C(=O)CC5)cnc3[nH]2)CC1 [Example 76]	SHP-2 enzyme (Met1-Leu525) (Homo sapiens, UniProt Q06124)	5.52 to 6.30
CC1(N)CCN(c2nc3nc(Sc4cccc(S(F)(F)(F)(F)F)c4)cnc3[nH]2)CC1 [Example 93]	SHP-2 enzyme (Met1-Leu525) (Homo sapiens, UniProt Q06124)	5.52 to 6.30
N[C@@H]1c2cccnc2CC12CCN(c1nc3nc(Sc4ccncc4Cl)cnc3[nH]1)CC2 [Example 150]	SHP-2 enzyme (Met1-Leu525) (Homo sapiens, UniProt Q06124)	> 6.30
Cc1ccsc1Sc1cnc2[nH]c(N3CCC(C)(N)CC3)nc2n1 [Example 68]	SHP-2 enzyme (Met1-Leu525) (Homo sapiens, UniProt Q06124)	< 5.52
N[C@@H]1c2ccccc2CC12CCN(c1nc3nc(Sc4ccnc5cccc(F)c45)cnc3[nH]1)CC2 [Example 218]	SHP-2 enzyme (Met1-Leu525) (Homo sapiens, UniProt Q06124)	> 6.30
N[C@@H]1c2ccccc2CC12CCN(c1nc3nc(Sc4ccn[nH]c4=O)cnc3[nH]1)CC2 [Example 234]	SHP-2 enzyme (Met1-Leu525) (Homo sapiens, UniProt Q06124)	> 6.30
CNc1nccc(Sc2cnc3[nH]c(N4CCC5(CC4)Cc4ncccc4[C@H]5N)nc3n2)c1Cl [Example 146]	SHP-2 enzyme (Met1-Leu525) (Homo sapiens, UniProt Q06124)	> 6.30
N#Cc1c(Sc2cnc3[nH]c(N4CCC5(CC4)Cc4ccccc4[C@H]5N)nc3n2)ccnc1N [Example 215]	SHP-2 enzyme (Met1-Leu525) (Homo sapiens, UniProt Q06124)	> 6.30
COc1ccccc1Sc1cnc2[nH]c(N3CCC(C)(N)CC3)nc2n1 [Example 24]	SHP-2 enzyme (Met1-Leu525) (Homo sapiens, UniProt Q06124)	> 6.30
N[C@@H]1CCCC12CCN(c1nc3ncc(N4CCCc5ncccc54)nc3[nH]1)CC2 [Example 120]	SHP-2 enzyme (Met1-Leu525) (Homo sapiens, UniProt Q06124)	< 5.52

Need pIC50 of N[C@@H]1c2ccccc2CC12CCN(c1nc3nc(Sc4ccncc4OC(F)(F)F)cnc3[nH]1)CC2 [Example 226] , thanks.
> 6.30

CS(=O)(=O)NC1CCN(c2nc3nc(Sc4cccnc4C(F)(F)F)cnc3[nH]2)CC1 [Example 40] , same question.
< 5.52

Field entry: FC(F)(F)c1ncccc1Sc1cnc2[nH]c(NCc3ccn[nH]3)nc2n1 [Example 32]
< 5.52

Now the molecule Nc1nccc(Sc2cnc3[nH]c(N4CCC5(CC4)Cc4ccc(Br)cc4[C@H]5N)nc3n2)c1Cl [Example 219]
> 6.30
